# systemName: Cytochrome P450 3A4 (Homo sapiens) (UniProt P08684)
# Sequence (P08684 whole entry, looked up): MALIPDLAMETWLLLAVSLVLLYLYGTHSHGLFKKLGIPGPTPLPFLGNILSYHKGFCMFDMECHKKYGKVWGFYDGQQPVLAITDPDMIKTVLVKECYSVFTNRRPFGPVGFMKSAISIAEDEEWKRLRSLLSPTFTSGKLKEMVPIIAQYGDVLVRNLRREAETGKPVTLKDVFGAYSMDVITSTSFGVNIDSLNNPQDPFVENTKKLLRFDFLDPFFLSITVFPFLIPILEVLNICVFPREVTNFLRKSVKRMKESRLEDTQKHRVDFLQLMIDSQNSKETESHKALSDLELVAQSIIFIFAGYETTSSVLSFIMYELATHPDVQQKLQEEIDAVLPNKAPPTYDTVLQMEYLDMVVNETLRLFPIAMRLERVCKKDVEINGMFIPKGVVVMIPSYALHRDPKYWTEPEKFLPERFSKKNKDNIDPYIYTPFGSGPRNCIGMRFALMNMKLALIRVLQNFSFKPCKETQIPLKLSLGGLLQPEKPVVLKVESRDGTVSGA
# protocolDetails: Cytochrome P450 Family 3 Subfamily A Member 4 (CYP3A4) small molecule antagonists: luciferase reporter qHTS assay (AID 1671201); note: nearly all actives have a fitted effect of over 50% in size
# details: P450-Glo CYP3A4 enzyme, luciferin luminescence, 1 h; series mostly up to 115 µM
Results filed as inconclusive are left out. The source made the active and inactive calls. Calls come from the whole dose curve; as a rule, active = well fitted inhibition curve with a large enough effect in the repeat runs; inconclusive = weak or mixed curves; inactive = no such curve, though single readings can be large or run the other way.
A correct response names exactly one class from T (active), F (inactive)

Write down the call the test reported for this molecule. Item: CCC(C(N)=O)N1CCCC1=O (stereo unspecified) F

Continue with "CCOP(=S)(OCC)Oc1ccc(Cl)cc1Cl" T

Now give it for "O=C(Cl)C(Cl)Cl" too. F

Likewise for BrCC1CO1 (stereo unspecified) ? F

Moving on to "CCOc1cc(OP(=S)(OC)OC)nc(CC)n1" F

// query: "CC(C)[C@]12CC(=O)[C@H](C)[C@H]1C2" F

Next up: "CCOP(=O)(CN(CCO)CCO)OCC" F

Also "N#CC(Br)(Br)C(N)=O" , if possible. F

Here is the next molecule: CC(C)NCC(O)c1ccc([N+](=O)[O-])cc1 (stereo unspecified) F

Another molecule to check: "CCCCCCCCBr" F

Another: CCC(C)C(C)(COC(N)=O)COC(N)=O (stereo unspecified) F

Another molecule to check: "C=C(Cl)CCl" F

Next molecule: "O=C(Cl)/C=C/C(=O)Cl" F

Entry to check: "CN(CCO)CCO" F

Record: "BrCc1ccc(Br)cc1" F

Also, "CCN(CCO)CCn1c(Cc2ccccc2)nc2c1c(=O)n(C)c(=O)n2C" please. F

The reported numbers originate from PubChem BioAssay (Tox21).
